FYI, the data here is from PubChem BioAssay.

measurement_protocol: VP16 transactivation reporter inhibitors, counter-screen for LRH-1 inverse agonist project, cell-based, luminescence, high throughput (AID 651615)
particulars: Gal4-VP16 luciferase reporter cells, at 3.6 µM
Activity calls are given as the source filed them. No stated cut-off is given here; in the data, active means inhibition above about 33%; inactive means the rest.
Outcome codes: active, inactive

| chemical_structure | label |
| --- | --- |
| CC(=O)Nc1ccc(NC(=O)CSc2ccc(-c3ccco3)nn2)cc1 | inactive |
| Cc1ccc2nsnc2c1NC(=O)c1ccc([N+](=O)[O-])o1 | inactive |
| O=C(NCc1ccc2c(c1)OCO2)c1nn(-c2ccccc2)c(=O)c2ccccc12 | inactive |
| Cc1ccc(Cl)cc1NC(=O)COC(=O)CC(C)(C)C | inactive |
| CCCCCCCn1c2c(c(=N)c3ccccc31)CCC2 | active |
| COc1cccc(C(=O)COc2cccc(NC(=O)c3cccc([N+](=O)[O-])c3)c2)c1 | inactive |
| O=C(COc1ccc(Cl)cc1Cl)Nc1ccccn1 | active |
| Cc1ccc[n+](CC(=O)Nc2ccc(Cl)c([N+](=O)[O-])c2)c1 | inactive |
| CCCCCCCn1c2c(c(=N)c3c1CCC3)CCCC2 | active |
| COc1cccc(/C=N/Nc2ncnc3scc(-c4ccccc4)c23)c1O | active |
| CCS(=O)(=O)Nc1cccc(-c2ccc3nnc(-c4cccnc4)n3n2)c1 | inactive |

----------
Listed molecules paired with reported inhibition
assayed_target: Nuclear receptor coactivator 2 (Homo sapiens)
measurement_protocol: SRC2 coactivator transcriptional activity inhibitors, confirmation, cell-based, luminescence, HEK293, triplicate (AID 652008);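 further: 0% = DMSO-treated cells and 100% = Gossypol at 36 µM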
particulars: HEK293 GAL4-SRC2 luciferase reporter, at 8.9 µM, stronger effect = higher value

| molecule | inhibition [%] |
| --- | --- |
| COc1cccc(/C=C2/SC(=S)N(CCCC(=O)Nc3ccc(O)cc3)C2=O)c1 | 23.7 |
| CC1=CC(C)(C)Nc2ccc(OC(=O)CN3C(=O)c4ccccc4C3=O)cc21 | 26.9 |
| O=C(CCCN1C(=O)/C(=C/c2ccccc2Cl)SC1=S)NNC(=O)c1cccnc1 | 29.9 |
| O=C(Nc1ccc(F)cc1)c1nc(S(=O)(=O)Cc2ccccc2)ncc1Cl | 37.9 |
| COc1ccc(OCCNC(=O)c2ccc3nc(C)c(N(C)C(=O)CCc4ccccc4)n3c2)cc1 | 2.8 |
| Cn1nc(C(F)(F)F)c(C#N)c1N1CCN(c2ccccc2)CC1 | 27.6 |
| CCCNC(=O)C[C@H]1C[C@H]2c3cc(NC(=O)Nc4ccc(F)cc4)ccc3O[C@H]2[C@@H](CO)O1 | -7.94 |
| CC(c1nccs1)N(C)C(=O)CCc1nnc(-c2ccc(-c3ccccc3)cc2)o1 (stereo unspecified) | 30.6 |
| Cc1nc2c(-c3ccc(F)cc3)cnn2c(N)c1-c1ccccc1 | 79.6 |
| CC(C)OC(=O)c1ccc(NCc2cc(O)ccc2O)cc1 | 54.8 |
| CN(C)CCCN(C(=O)CCOc1ccccc1)c1nc2c(F)cccc2s1 | 20.6 |
| COc1ccc(OC)c(CC(=O)Nc2ccc3c(c2)c(=O)n(C)n3Cc2cccc(C(F)(F)F)c2)c1 | -6.44 |
| Cc1ccc(S(=O)(=O)C[C@@H]2OC[C@H](C)N2S(=O)(=O)c2ccc(C)cc2)cc1 | -6.07 |
| Cc1cc(C)c2c(N)c(C(=O)Nc3ncc(C)s3)sc2n1 | 77.2 |
| Cc1ccc(-n2c(C)c([N+](=O)[O-])c3ccc(O)cc32)cc1 | 47.5 |
| O=C(Nc1nc2ccccc2s1)c1ccc(N2CCCCC2)c([N+](=O)[O-])c1 | 10 |
| O=C(C(O)c1ccc(Br)cc1)N1CCC(Nc2ccc3[nH]ncc3c2)CC1 (stereo unspecified) | -7.36 |
| CCn1cc(S(=O)(=O)Nc2ccc3c(c2)OCCO3)cn1 | 48.4 |
| CCSc1ccccc1C(=O)N1CCN(c2ccc([N+](=O)[O-])cc2)CC1 | 15.7 |
| CC(C)COc1ccc(C/C(N)=N/n2cnnc2)cc1 | 40.3 |
| CCOC(=O)C1CCCN(C(=O)CCNS(=O)(=O)c2ccc(Br)cc2)C1 (stereo unspecified) | -4.97 |

----------
measurement_protocol: GAL4-VP16 reporter modulators, confirmation, counter-screen for NR2E3 agonist project, cell-based, luminescence, CHO-S, high throughput (AID 624379);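 further: luciferase from a UAS reporter driven by GAL4-VP16 transactivation; 0% = DMSO with VP16-transfected cells and 100% = DMSO with cells lacking VP16; higher means less reporter light so more repression of VP16 activity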
particulars: CHO-S GAL4-VP16 luciferase reporter, at 3.98 µM, stronger effect = higher value
The list shows a part of the results. Calls of active or inactive are those of the source.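 Rule for the calls: active = mean inhibition above a cutoff equal to the average over all tested compounds plus one standard deviation (cut at about 70% in these data); inactive = the rest.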
readout_type: inhibition

| chemical_structure | result |
| --- | --- |
| CSc1nsc(SC)c1NC(=O)OC1CCCCC1 | -17.6% (inactive) |
| CC[C@H]1CN2CCc3cc(OC)c(OC)cc3[C@@H]2C[C@@H]1C[C@H]1NCCc2cc(OC)c(OC)cc21 | 99.2% (active) |
| CC(C)OCCCNc1ncnc2c1[nH]c1ccc(F)cc12 | 81.3% (active) |
| O=C(CC(O)(C(F)(F)F)C(F)(F)F)Nc1ccc(Cl)c(Cl)c1 | 89.7% (active) |
| C=CCC1(CC=C)CCCN1C(=O)c1cc(COc2ccc(-n3cncn3)cc2)on1 | 86.5% (active) |
| C=CCn1c(C)cc(C2=NNC(=NCC)SC2)c1C | 73% (active) |
| S=C(NN=Cc1ccccn1)Nc1ccccn1 | 14.3% (inactive) |
| CC(=O)c1c(C)[nH]c(C(=O)COC(=O)c2cccc(S(=O)(=O)N(C)c3ccccc3)c2)c1C | 73.4% (active) |
| O=[N+]([O-])c1ccc(NS(=O)(=O)c2ccccc2)c(Cl)c1 | 43.9% (inactive) |
| N#C[C@]1(S(=O)(=O)c2ccccc2)C[C@@H]2ON=C(c3cccc(Br)c3)[C@@H]2C1 | 75.2% (active) |

----------
assayed_target: Protein phosphatase methylesterase 1 (Homo sapiens)
measurement_protocol: PME-1 inhibitor activity retest, confirmation, biochemical, fluorescence polarization, FP-Rh probe, triplicate (AID 2171);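 further: 0% = enzyme with DMSO and 100% = wells lacking PME-1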
particulars: recombinant PME-1, FP-Rh probe fluorescence polarization; at 5.9 µM; stronger effect = higher value
fulfilled means recorded inhibition is 20% or above; not fulfilled means it is below 20%.

| chemical_structure | label |
| --- | --- |
| C/C(=C\c1ccc2c(c1)OCO2)C1Nc2cccc3cccc(c23)N1 | fulfilled |
| CCOc1ccc(N=Nc2c(=O)[nH]n3c(=O)c4c([nH]c23)CCCC4)cc1 | fulfilled |
| COc1cc2nc(Nc3ccc(C)c(Cl)c3)nc(N)c2cc1OC | fulfilled |
| COCCN=c1scc(-c2cc(OC)c(OC)c(OC)c2)n1/N=C/c1c(C)[nH]c2ccccc12 | not fulfilled |
| Oc1ccc(C2Nc3cccc4cccc(c34)N2)c(O)c1 | fulfilled |
| N#C/C(=C/c1ccc(O)c(O)c1)c1nc2ccccc2[nH]1 | not fulfilled |
| CC(C)c1ccc2[nH]c(O)c(N=NC(=O)c3ccc(CSc4nncn4C)cc3)c2c1 | fulfilled |
| COc1cc2c(cc1NC(=O)Nc1cccc(C)c1)oc1ccccc12 | not fulfilled |
| O=C1c2cccc3c([N+](=O)[O-])ccc(c23)C(=O)N1c1ccc(Cl)cn1 | fulfilled |
| COc1cc(/C=C2/C(=O)c3cccc([N+](=O)[O-])c3C2=O)c(Br)cc1O | not fulfilled |
| O=C(Nc1cccc(-c2csc(Nc3ccc(Cl)cc3)n2)c1)c1cc([N+](=O)[O-])cc(C(F)(F)F)c1 | not fulfilled |
| COc1ccc(S(=O)(=O)/N=C2\C=C(Nc3ccc(O)cc3)C(=O)c3ccccc32)cc1 | fulfilled |
| Cc1ccc(OCCn2cc(/C=N/NC(=O)c3ccncc3)c3ccccc32)cc1 | fulfilled |
| Cc1ccc2[nH]c(O)c(N=NC(=O)c3ccc(NS(=O)(=O)c4cccs4)cc3)c2c1 | fulfilled |
| O=C(N/N=C/c1c[nH]c2ccccc12)c1ccc([N+](=O)[O-])cc1Cl | fulfilled |
| CC(C)N=c1cc2n(-c3ccc(Cl)cc3)c3ccccc3nc-2cc1Nc1ccc(Cl)cc1 | not fulfilled |
| CC(=O)Nc1ccc(Nc2c3c4c(cccc4n(C)c2=O)C(=O)c2ccccc2-3)cc1 | fulfilled |
| CCN(CC)c1ccc(/C=N/NC(=O)c2cccc(S(=O)(=O)Nc3ccccc3OC)c2)c(O)c1 | fulfilled |
| Cc1ccc(S(=O)(=O)N2CCN(C(=O)Cn3cnc4c3c(=O)n(C)c(=O)n4C)CC2)cc1C | fulfilled |

----------
measurement_protocol: VP16 transactivation inhibitors, counter-screen for SRC1 inhibitor project, cell-based, luminescence, high throughput (AID 588824)
particulars: cell-based VP16 transactivation luciferase luminescence; at 3.6 µM
The source made the active and inactive calls. Rule as the data show it: active = inhibition above about 25%; inactive = the rest.
Outcome codes: active, inactive

| compound | label |
| --- | --- |
| COc1cccc(CNC(=O)C2CCCN(S(C)(=O)=O)C2)c1 (stereo unspecified) | inactive |
| CCC1(OC(=O)CN(C)C)C(=O)OCc2c1cc1n(c2=O)Cc2cc3c(N)cccc3nc2-1 (stereo unspecified) | active |
| Clc1ccc(-c2nnc(CSc3nnc(-c4cccs4)n3Cc3ccccc3)o2)cc1 | active |
| CN1CCN(c2ccc(Cl)cc2NC(=O)CC2OC(=O)c3ccccc32)CC1 (stereo unspecified) | inactive |
| CC(C)n1cc(/C=C/c2cc[n+](C)cc2)c2ccccc21 | active |
| COC(=O)CCn1nnc(-c2ccc(C(C)C)cc2)n1 | active |
| Nc1nc(Cl)nc2ccc(Br)cc12 | inactive |
| COc1ccc(C(=O)Nc2ccnn2C2CCN(C3CCC3)CC2)cc1 | inactive |
| C/C(=N\Nc1ncnc2sc(C)c(C)c12)c1ccccn1 | active |
| Cc1nc2c(-c3ccccc3)cnn2c(N)c1-c1ccccc1 | inactive |
| COc1ccc(-n2cc(-c3ccccc3)[n+]3c2CCCCC3)cc1 | active |
